Tested on: CEM cells HIV-1 protection, formazan growth assay
Assay: NCI AIDS Antiviral Assay
Procedure: The ability of compounds to protect human CEM cells from HIV-1 infection is measured as a screen for new compounds capable of inhibiting the HIV virus. Five concentrations of drug were tested on uninfected and infected cells and cell growth was measured using a soluble formazan assay. […] Compounds that provided at least 50% protection were retested. Compounds that provided at least 50% protection on retest were listed as moderately active. […]
QUANTITY NAME: EC50

>  <MOLECULE>
Cc1cc(=O)c2ccc3c(ccc4c(=O)cc(C)[nH]c43)c2[nH]1

>  <RESULT>
> 200 µM

$$$$
>  <MOLECULE>
O=C1NNC2(C(=O)N1)c1ccccc1-c1ccccc12

>  <RESULT>
> 200 µM

$$$$
>  <MOLECULE>
O=C(Nc1ccc(Cl)c(C(F)(F)F)c1)C(=O)C(C(=O)/C=C/c1ccccc1)C1OC(=O)c2ccccc21 (stereo not given)

>  <RESULT>
> 129 µM

$$$$
>  <MOLECULE>
CCC(C(=O)c1ccc(OC)c(OC)c1)N(C(=O)C(F)(F)F)C(C)c1ccccc1 (stereo not given)

>  <RESULT>
> 200 µM

$$$$
>  <MOLECULE>
CCCCNC1CCC2(SCCS2)c2[nH]c3ccccc3c21 (stereo not given)

>  <RESULT>
> 200 µM

$$$$
>  <MOLECULE>
CCCN(CCC)CCCOC(=O)c1ccc2oc3ccc(C(=O)OCCCN(CCC)CCC)cc3c2c1

>  <RESULT>
> 112 µM

$$$$
>  <MOLECULE>
COC(=O)[C@@H]1CCCN1CCN1CCC[C@H]1C(=O)OC

>  <RESULT>
> 200 µM

$$$$
>  <MOLECULE>
CS(=O)(=O)OCCC(=O)N1CCN(C(=O)CCOS(C)(=O)=O)CC1

>  <RESULT>
> 200 µM

$$$$
>  <MOLECULE>
CCCCN(C)CC(C(C)=O)C(c1ccccc1)c1c(O)c2ccccc2oc1=O (stereo not given)

>  <RESULT>
> 67.6 µM

$$$$
>  <MOLECULE>
CCCN1C(=O)c2cc(=O)[nH]c(O)c2C1C (stereo not given)

>  <RESULT>
> 117 µM

$$$$

* * *

System: CEM cells HIV-1 protection, formazan growth assay
Assay: NCI AIDS Antiviral Assay;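 active means compounds giving half or more protection of infected cells from virus-caused growth loss, again on retest; inactive means the rest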
Description: The ability of compounds to protect human CEM cells from HIV-1 infection is measured as a screen for new compounds capable of inhibiting the HIV virus. Five concentrations of drug were tested on uninfected and infected cells and cell growth was measured using a soluble formazan assay. […] Compounds that provided at least 50% protection were retested. Compounds that provided at least 50% protection on retest were listed as moderately active. […]
Classes used: true (1) for active, false (0) for inactive

>  <COMPOUND>
COC12C(COC(N)=O)C3=C(C(=O)C(C)=C(N4CCN(C)CC4)C3=O)N1CC1NC12 (stereo unspecified)

>  <CLASSIFICATION>
false (0)

$$$$
>  <COMPOUND>
Nc1ncnc2sc(Nc3ccccc3)nc12

>  <CLASSIFICATION>
true (1)

$$$$
>  <COMPOUND>
C=C1CC(COc2ccc3c(C)c(Cl)c(=O)oc3c2)(c2ccccc2)OC1=O (stereo unspecified)

>  <CLASSIFICATION>
false (0)

$$$$
>  <COMPOUND>
CCOC(=O)C(=CN1CC(=O)NC1=S)C(=O)OCC

>  <CLASSIFICATION>
false (0)

$$$$
>  <COMPOUND>
COCC(=O)OC1CCn2c1nc1c2C(=O)C(C)=C(NC(C)=O)C1=N (stereo unspecified)

>  <CLASSIFICATION>
false (0)

$$$$
>  <COMPOUND>
CN(C)CC(O)CNC(=O)Nc1ccccc1 (stereo unspecified)

>  <CLASSIFICATION>
false (0)

$$$$

* * *

Tested on: CEM cells HIV-1 protection, formazan growth assay
Assay: NCI AIDS Antiviral Assay
Active and inactive are the calls of the source.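 How the source made its calls: active means compounds giving half or more protection of infected cells from virus-caused growth loss, again on retest; inactive means the rest.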

>  <COMPOUND>
Cc1nc2c(nc1C)C(=O)C(N)=CC2=O

>  <MEASUREMENT TARGET>
CEM cells HIV-1 protection, formazan growth assay

>  <outcome>
inactive

$$$$
>  <COMPOUND>
C/C=C1/CN2C3CC1C1(C(=O)OC)C(OC(C)=O)[C@]4(C[C@H]21)c1cc(OC)ccc1N(C)C34 (some centres not stated)

>  <MEASUREMENT TARGET>
CEM cells HIV-1 protection, formazan growth assay

>  <outcome>
inactive

$$$$
>  <COMPOUND>
CN(C)C(=O)NC(=S)N(C)C

>  <MEASUREMENT TARGET>
CEM cells HIV-1 protection, formazan growth assay

>  <outcome>
inactive

$$$$
>  <COMPOUND>
CC(=O)OC[C@]1(C)C2C=C[C@@H]3C4(CC[C@]5(C)C(C(C)N(C)C)[C@H](O)CC35C)CC24CC[C@@H]1N(C)C (some centres not stated)

>  <MEASUREMENT TARGET>
CEM cells HIV-1 protection, formazan growth assay

>  <outcome>
inactive

$$$$
>  <COMPOUND>
O=C(O)c1ccccc1Sc1ccccc1[N+](=O)[O-]

>  <MEASUREMENT TARGET>
CEM cells HIV-1 protection, formazan growth assay

>  <outcome>
inactive

$$$$
>  <COMPOUND>
CN(C)C1CCC2(CC1)OCCO2

>  <MEASUREMENT TARGET>
CEM cells HIV-1 protection, formazan growth assay

>  <outcome>
inactive

$$$$
>  <COMPOUND>
CC(=O)O[C@H]1CC[C@@]2(C)C(=CC[C@@H]3C2CC[C@]2(C)Nc4[nH]ncc4CC32)C1 (some centres not stated)

>  <MEASUREMENT TARGET>
CEM cells HIV-1 protection, formazan growth assay

>  <outcome>
inactive

$$$$
>  <COMPOUND>
CSC(=S)OC1C(CO[Si](C)(C)C(C)(C)C)OC2OC(C)(C)OC21 (configuration not stated)

>  <MEASUREMENT TARGET>
CEM cells HIV-1 protection, formazan growth assay

>  <outcome>
inactive

$$$$
>  <COMPOUND>
O/N=C1/CCCC/C1=C\c1ccc(Cl)c(Cl)c1

>  <MEASUREMENT TARGET>
CEM cells HIV-1 protection, formazan growth assay

>  <outcome>
inactive

$$$$
>  <COMPOUND>
COc1ccc(CCNCc2cccc(OC)c2OC)cc1OC

>  <MEASUREMENT TARGET>
CEM cells HIV-1 protection, formazan growth assay

>  <outcome>
inactive

$$$$
>  <COMPOUND>
CCC(Oc1ccc(OC)c2c1C(=O)CCC2)C(=O)O (configuration not stated)

>  <MEASUREMENT TARGET>
CEM cells HIV-1 protection, formazan growth assay

>  <outcome>
inactive

$$$$
>  <COMPOUND>
CCOC(=O)CNC(=O)c1[nH]cnc1/N=N/N(C)C

>  <MEASUREMENT TARGET>
CEM cells HIV-1 protection, formazan growth assay

>  <outcome>
inactive

$$$$

* * *

System: CEM cells HIV-1 protection, formazan growth assay
Assay: NCI AIDS Antiviral Assay
Details: measured here: growth of uninfected CEM cells
pIC50: −log10 of the molar value.
Label rule, in plain words: pIC50 of 4 and up is label 1, under 4 is label 0.

>  <COMPOUND>
C=CCCC(O)c1cc(C)c(O)c(C)c1 (stereo not given)

>  <CLASSIFICATION>
label 0

$$$$
>  <COMPOUND>
O=C(/C=C/c1ccsc1)c1ccc(Cl)cc1

>  <CLASSIFICATION>
label 1

$$$$
>  <COMPOUND>
CC12CCC(=O)N1c1cnccc1N2 (stereo not given)

>  <CLASSIFICATION>
label 0

$$$$
>  <COMPOUND>
CCC1=C(C(C)=O)[C@@H]2CCCCC[C@@H](C(=O)OC)C2C1=O (stereo not given in full)

>  <CLASSIFICATION>
label 0

$$$$
>  <COMPOUND>
C/C(=N\N)C(CN1CCCCC1)C(c1ccccc1)c1c(O)c2ccccc2oc1=O (stereo not given)

>  <CLASSIFICATION>
label 1

$$$$
>  <COMPOUND>
CS/C1=C(\c2ccc(C)cc2)N(c2ccccc2)C(=O)C(=O)N(c2ccccc2)/C(c2ccc(C)cc2)=C(/SC)SS1

>  <CLASSIFICATION>
label 1

$$$$
>  <COMPOUND>
CC1(C)C2CCC(O)(C2)C1N (stereo not given)

>  <CLASSIFICATION>
label 0

$$$$
>  <COMPOUND>
Nc1nc(=O)n(C2OC(CO)C(O)C2Cl)cc1I (stereo not given)

>  <CLASSIFICATION>
label 1

$$$$
>  <COMPOUND>
COC(=O)C1NC(C)(C(=O)OC)C2C(=O)NC(=O)C12 (stereo not given)

>  <CLASSIFICATION>
label 0

$$$$
>  <COMPOUND>
O=C(CC1OC(O)C(Cl)=C1Cl)c1cccnc1 (stereo not given)

>  <CLASSIFICATION>
label 0

$$$$
>  <COMPOUND>
CCCCc1ccc(Nc2nc(N)c3[nH]cnc3n2)cc1

>  <CLASSIFICATION>
label 1

$$$$
>  <COMPOUND>
C=C1CC2(CCOc3ccccc32)OC1=O (stereo not given)

>  <CLASSIFICATION>
label 1

$$$$
>  <COMPOUND>
CC(=O)c1ccc(NC(=O)C(=O)CC(=O)c2sc(-n3nc(-c4ccccc4)cc3-c3ccccc3)nc2C)cc1

>  <CLASSIFICATION>
label 0

$$$$
>  <COMPOUND>
N#Cc1c(N2CCCC2)[nH]c(=O)n(-c2ccccc2)c1=S

>  <CLASSIFICATION>
label 0

$$$$
>  <COMPOUND>
O=C(OCCC[P+](c1ccccc1)(c1ccccc1)c1ccccc1)c1ccccc1

>  <CLASSIFICATION>
label 1

$$$$
>  <COMPOUND>
CCCCCCCCCCCCCCCC[N+](C)(C)Cc1ccccc1

>  <CLASSIFICATION>
label 1

$$$$
>  <COMPOUND>
COC1CC2C=C(C)/C=C/C=C/C(=O)NC(c3ccccc3)C/C=C/CCC(O)CC(=O)C2=C1O (stereo not given)

>  <CLASSIFICATION>
label 1

$$$$
>  <COMPOUND>
COc1cc2c(c(OC)c1OC)C(=O)[C@@H](O)[C@H]2N

>  <CLASSIFICATION>
label 0

$$$$
>  <COMPOUND>
CC/C(CC(=O)CCC(=O)Nc1c(C)cccc1C)=N\NC(=O)NN

>  <CLASSIFICATION>
label 0

$$$$
>  <COMPOUND>
Cc1cn(C2CC(O)C(CN(O)C(N)=O)O2)c(=O)[nH]c1=O (stereo not given)

>  <CLASSIFICATION>
label 0

$$$$
>  <COMPOUND>
NC(CCCCCCCCCCP(=O)(O)O)C(=O)O (stereo not given)

>  <CLASSIFICATION>
label 0

$$$$
>  <COMPOUND>
NC1=Nc2ccccc2Sc2nncn21

>  <CLASSIFICATION>
label 0

$$$$
>  <COMPOUND>
COc1ccc(OC)c(NC(=O)C(=O)CC(=O)c2sc(-n3nc(-c4ccccc4)cc3-c3ccccc3)nc2C)c1

>  <CLASSIFICATION>
label 0

$$$$
>  <COMPOUND>
O=C1c2ccccc2C(=O)N1CCS(=O)(=O)CCS(=O)(=O)CCN1C(=O)c2ccccc2C1=O

>  <CLASSIFICATION>
label 0

$$$$
>  <COMPOUND>
CC1(C)OC2C(CF)OC(n3cc(Br)c(=O)[nH]c3=O)C2O1 (stereo not given)

>  <CLASSIFICATION>
label 0

$$$$
>  <COMPOUND>
COP1(=O)NCc2ncccc2O1 (stereo not given)

>  <CLASSIFICATION>
label 0

$$$$
>  <COMPOUND>
C=C1CC(Cn2ccc(=O)[nH]c2=O)(c2ccc(Cl)cc2)OC1=O (stereo not given)

>  <CLASSIFICATION>
label 1

$$$$
>  <COMPOUND>
CCc1n[nH]c(=O)n1N1C(=O)C2CC=CCC2C1=O (stereo not given)

>  <CLASSIFICATION>
label 0

$$$$
>  <COMPOUND>
CN(C)c1ccc(C2NCCc3c2[nH]c2ccccc32)cc1 (stereo not given)

>  <CLASSIFICATION>
label 1

$$$$
>  <COMPOUND>
CNn1c(-c2ccc(C)cc2)n[nH]c1=O

>  <CLASSIFICATION>
label 1

$$$$
>  <COMPOUND>
CO/C=C/CCCO

>  <CLASSIFICATION>
label 0

$$$$
>  <COMPOUND>
CC(C)(C)C1CCC2c3c([nH]c4ccccc34)C3C(=O)N(c4ccc(C#N)cc4)C(=O)C3C2C1 (stereo not given)

>  <CLASSIFICATION>
label 1

$$$$
>  <COMPOUND>
O=c1[nH]c2ccccc2c(O)c1-[n+]1ccccc1

>  <CLASSIFICATION>
label 0

$$$$
>  <COMPOUND>
O=C1CCCCc2scc(C(=O)O)c2N1

>  <CLASSIFICATION>
label 0

$$$$
>  <COMPOUND>
CCOC(=O)Cc1cc(=O)oc2c3c(cc(OC(C)C)c12)O[C@H](C)[C@@H](C)C3=O

>  <CLASSIFICATION>
label 0

$$$$
>  <COMPOUND>
Cc1ccc(S(=O)(=O)N/N=C2/CC3CCC2C3)cc1 (stereo not given)

>  <CLASSIFICATION>
label 0

$$$$
>  <COMPOUND>
Cc1cc(N=O)ccc1O

>  <CLASSIFICATION>
label 1

$$$$
>  <COMPOUND>
NC1(CCCCCCCCCCC(=O)O)CNCCNCCNCCNC1

>  <CLASSIFICATION>
label 1

$$$$
